The values you see were collected from patent US7985753B2.

This listing pairs compounds with measured IC50.
target: transmembrane allosteric modulatory sites of mGluR5 receptors in cortical membranes (Rattus norvegicus); assay: [^3H]-MPEP binding assay in rat cortical membranes; conditions: read-out: mGluR5_M_MPEP_r_CTX_IC50
Answer with a number only, understood to be in µM.

Consider the reported IC50 for these compounds:
[[record]]
compound = "CC1c2cc(F)ccc2CCN1C(=O)c1cc2ncc(Br)cn2n1 (stereo not shown) [drawing 454]"
quantity_unit = "µM"
assay_value = 0.03

[[record]]
compound = "CC1c2cccc(Br)c2CCN1C(=O)c1cc2ncc(Cl)cn2n1 (stereo not shown) [drawing 461]"
quantity_unit = "µM"
assay_value = 0.021

[[record]]
compound = "COc1ccc2c(c1)CCN(C(=O)c1cc3ncc(Br)cn3n1)C2C (stereo not shown) [drawing 459]"
quantity_unit = "µM"
assay_value = 0.02


Data request: I am curious: what IC50 value has been reported for CC1c2ccc(F)cc2CCN1C(=O)c1cc2ncc(Cl)cn2n1 (stereo not shown) [drawing 456] ?
Data returned: 0.04

Data request: Now this one: COc1ccc2c(c1)CCN(C(=O)c1cc3ncc(Cl)cn3n1)C2C (stereo not shown) [drawing 460]
Data returned: 0.027

Data request: Now the compound CC1c2cccc(F)c2CCN1C(=O)c1cc2ncc(Br)cn2n1 (stereo not shown) [drawing 455]
Data returned: 0.01

Data request: Now consider CC1CN(C(=O)c2cc3ncc(Br)cn3n2)C(C)c2ccccc21 (stereo not shown) [drawing 458] .
Data returned: 0.091

Data request: Proceed to COc1cc2c(cc1O)CCN(C(=O)c1cc3ncc(Br)cn3n1)C2C (stereo not shown) [drawing 453]
Data returned: 0.06

Data request: Same thing, different compound: O=C(c1cc2ncc(Cl)cn2n1)N1CCc2ncc(Br)cc2C1 [drawing 462]
Data returned: 0.107

Data request: # repeat for CC1CN(C(=O)c2cc3ncc(Cl)cn3n2)C(C)c2ccccc21 (stereo not shown) [drawing 457]
Data returned: 0.118

* * *

target: mGluR5 receptors (Rattus norvegicus, UniProt P31424); construct: endogenous in cells; assay: Cytosolic calcium studies with astrocytes (astrocyte culture test, FLIPR); conditions: rat primary astrocytes; L-quisqualate (100 nM); read-out: mGluR5_FLIPRr_rpA IC50
Sequence (P31424 21-1203): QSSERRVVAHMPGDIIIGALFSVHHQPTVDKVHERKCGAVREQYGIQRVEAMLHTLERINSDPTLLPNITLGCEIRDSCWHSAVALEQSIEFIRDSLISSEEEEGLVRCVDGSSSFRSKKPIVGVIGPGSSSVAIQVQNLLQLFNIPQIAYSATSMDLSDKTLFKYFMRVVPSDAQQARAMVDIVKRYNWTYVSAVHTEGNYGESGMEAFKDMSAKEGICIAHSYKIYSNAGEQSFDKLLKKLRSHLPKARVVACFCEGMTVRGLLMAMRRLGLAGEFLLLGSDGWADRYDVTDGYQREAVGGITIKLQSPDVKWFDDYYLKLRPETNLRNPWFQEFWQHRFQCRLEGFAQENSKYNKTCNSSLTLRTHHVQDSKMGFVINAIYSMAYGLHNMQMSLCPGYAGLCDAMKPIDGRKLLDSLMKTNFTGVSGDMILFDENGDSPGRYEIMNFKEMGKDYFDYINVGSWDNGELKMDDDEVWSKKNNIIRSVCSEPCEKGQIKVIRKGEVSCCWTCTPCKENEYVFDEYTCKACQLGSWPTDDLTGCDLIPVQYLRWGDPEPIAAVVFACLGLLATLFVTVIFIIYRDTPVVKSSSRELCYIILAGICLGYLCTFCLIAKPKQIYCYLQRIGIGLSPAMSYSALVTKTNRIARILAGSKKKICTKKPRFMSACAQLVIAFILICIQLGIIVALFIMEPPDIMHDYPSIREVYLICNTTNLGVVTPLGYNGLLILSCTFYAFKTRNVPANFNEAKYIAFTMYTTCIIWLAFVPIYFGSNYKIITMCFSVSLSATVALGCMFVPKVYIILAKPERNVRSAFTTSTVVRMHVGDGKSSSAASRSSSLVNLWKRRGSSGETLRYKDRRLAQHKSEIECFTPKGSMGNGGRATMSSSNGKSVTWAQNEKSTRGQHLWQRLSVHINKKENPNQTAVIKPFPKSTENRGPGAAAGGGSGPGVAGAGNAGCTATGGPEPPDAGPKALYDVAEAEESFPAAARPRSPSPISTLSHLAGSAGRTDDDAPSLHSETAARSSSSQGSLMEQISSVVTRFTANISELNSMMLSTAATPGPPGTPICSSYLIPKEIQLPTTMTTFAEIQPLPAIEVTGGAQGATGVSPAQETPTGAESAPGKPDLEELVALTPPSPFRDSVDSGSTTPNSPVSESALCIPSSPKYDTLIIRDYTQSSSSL
assay-metric: pIC50
Friendly reminder that pIC50 comes from taking -log10 of the concentration in mol/L.

[[record]]
molecule = "CC1c2cccc(Br)c2CCN1C(=O)c1cc2ncc(Cl)cn2n1 (centres unmarked) [drawing 451]"
assay_value = 7.19

[[record]]
molecule = "CC1CN(C(=O)c2cc3ncc(Cl)cn3n2)C(C)c2ccccc21 (centres unmarked) [drawing 447]"
assay_value = 7.19

[[record]]
molecule = "COc1ccc2c(c1)CCN(C(=O)c1cc3ncc(Br)cn3n1)C2C (centres unmarked) [drawing 449]"
assay_value = 7.21

[[record]]
molecule = "CC1c2ccc(F)cc2CCN1C(=O)c1cc2ncc(Cl)cn2n1 (centres unmarked) [drawing 446]"
assay_value = 7.33


Please find the next molecule below.
Data request: Dear colleague, I am looking for the recorded pIC50 of the following molecule: CC1c2cc(F)ccc2CCN1C(=O)c1cc2ncc(Br)cn2n1 (centres unmarked) [drawing 444]
Data returned: 7.34

* * *

# pIC50 annotations
biological target: metabotropic glutamate receptor (mGluR5) (Homo sapiens); experiment: Cytosolic calcium studies with stably transfected cells (FLIPR); details: CHO-K1 cells expressing human mGluR5; agonist L-quisqualic acid; read-out: mGluR5_FLIPR_h_CHO_NAM IC50
Sequence (P41594 21-1212): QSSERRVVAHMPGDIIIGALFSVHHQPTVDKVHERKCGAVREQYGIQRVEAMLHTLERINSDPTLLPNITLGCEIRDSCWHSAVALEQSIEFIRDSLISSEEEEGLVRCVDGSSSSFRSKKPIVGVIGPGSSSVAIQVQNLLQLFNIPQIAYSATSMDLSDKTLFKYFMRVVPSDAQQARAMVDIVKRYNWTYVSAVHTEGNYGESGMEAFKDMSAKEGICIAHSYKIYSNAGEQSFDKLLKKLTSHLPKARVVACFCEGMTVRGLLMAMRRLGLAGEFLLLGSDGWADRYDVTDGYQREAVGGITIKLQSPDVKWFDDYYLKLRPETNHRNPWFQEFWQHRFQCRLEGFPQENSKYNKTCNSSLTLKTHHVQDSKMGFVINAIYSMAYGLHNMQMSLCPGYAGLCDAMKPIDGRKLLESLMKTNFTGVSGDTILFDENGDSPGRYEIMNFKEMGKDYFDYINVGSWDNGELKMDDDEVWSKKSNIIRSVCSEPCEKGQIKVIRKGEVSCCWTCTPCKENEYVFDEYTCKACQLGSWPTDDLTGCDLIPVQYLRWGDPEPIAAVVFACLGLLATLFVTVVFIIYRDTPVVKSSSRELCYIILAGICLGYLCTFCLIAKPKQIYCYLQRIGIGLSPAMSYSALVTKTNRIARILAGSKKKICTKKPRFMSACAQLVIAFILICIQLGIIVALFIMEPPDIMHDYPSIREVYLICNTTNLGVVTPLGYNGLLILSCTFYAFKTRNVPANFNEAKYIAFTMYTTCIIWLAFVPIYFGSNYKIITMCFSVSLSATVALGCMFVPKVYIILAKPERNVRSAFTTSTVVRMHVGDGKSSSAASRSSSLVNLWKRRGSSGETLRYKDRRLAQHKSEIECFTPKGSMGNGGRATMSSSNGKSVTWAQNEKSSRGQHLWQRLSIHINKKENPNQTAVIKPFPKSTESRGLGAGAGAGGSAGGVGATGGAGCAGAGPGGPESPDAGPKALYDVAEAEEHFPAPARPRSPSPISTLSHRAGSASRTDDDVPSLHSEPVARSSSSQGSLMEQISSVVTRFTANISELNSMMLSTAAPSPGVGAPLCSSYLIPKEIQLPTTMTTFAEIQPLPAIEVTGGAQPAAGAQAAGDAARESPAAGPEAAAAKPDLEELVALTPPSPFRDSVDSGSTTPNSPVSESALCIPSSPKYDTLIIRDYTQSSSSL
// pIC50: -log10(molar conc.)

[[record]]
compound = "CC1CN(C(=O)c2cc3ncc(Br)cn3n2)C(C)c2ccccc21 (stereo not shown) [drawing 438]"
measured_target = "metabotropic glutamate receptor (mGluR5) (Homo sapiens)"
assay_metric = "pIC50"
assay_value = 6.79

[[record]]
compound = "CC1c2cc(F)ccc2CCN1C(=O)c1cc2ncc(Br)cn2n1 (stereo not shown) [drawing 434]"
measured_target = "metabotropic glutamate receptor (mGluR5) (Homo sapiens)"
assay_metric = "pIC50"
assay_value = 7.36

[[record]]
compound = "COc1ccc2c(c1)CCN(C(=O)c1cc3ncc(Cl)cn3n1)C2C (stereo not shown) [drawing 440]"
measured_target = "metabotropic glutamate receptor (mGluR5) (Homo sapiens)"
assay_metric = "pIC50"
assay_value = 6.81


Data request: Request the reported pIC50 associated with CC1c2cccc(Br)c2CCN1C(=O)c1cc2ncc(Cl)cn2n1 (stereo not shown) [drawing 441]
Data returned: 6.75

Data request: Now the same for O=C(c1cc2ncc(Cl)cn2n1)N1CCc2ncc(Br)cc2C1 [drawing 442]
Data returned: 6.78

Data request: How about this compound: COc1cc2c(cc1O)CCN(C(=O)c1cc3ncc(Br)cn3n1)C2C (stereo not shown)
Data returned: 6.57

Data request: How about this compound: CC1c2cccc(F)c2CCN1C(=O)c1cc2ncc(Br)cn2n1 (stereo not shown) [drawing 435]
Data returned: 7.25

Data request: Try CC1c2ccc(F)cc2CCN1C(=O)c1cc2ncc(Cl)cn2n1 (stereo not shown) [drawing 436] next.
Data returned: 7.18

Data request: Follow-up item: COc1ccc2c(c1)CCN(C(=O)c1cc3ncc(Br)cn3n1)C2C (stereo not shown) [drawing 439]
Data returned: 6.80

Data request: # repeat for CC1CN(C(=O)c2cc3ncc(Cl)cn3n2)C(C)c2ccccc21 (stereo not shown) [drawing 437]
Data returned: 7.00
